test: Phase 1 multiple dose pharmacokinetics in healthy adults; assay type: in vivo, human; settings: human, plasma, oral, 1.25 mg, 1.25 mg qw fasted; SD 88.4; read-out: mean Cmax after the first dose
measured_attribute: Cmax (ng/mL)
API: value field is a number in ng/mL; no unit string.

What the record says about CCCCOc1nc(N)c2[nH]cc(Cc3ccc(CN4CCCC4)cc3)c2n1 : Cmax is 0.186

###

experiment: Phase 1 single oral dose pharmacokinetics in healthy adults; type: in vivo; conditions: both sexes, human, plasma, po, single oral doses 0.2 to 1.8 mg; read-out: tmax, range over doses
measured_attribute: Tmax

# Tmax (compound: CCCCOc1nc(N)c2[nH]cc(Cc3ccc(CN4CCCC4)cc3)c2n1 ) is 30 to 60 min
